Target: randomly biotinylated human FIXa (human, UniProt P00740 47-191; P00740 227-461, randomly biotinylated (NHS-d-biotin))
Sequence (P00740 47-191, chain 1 of 2): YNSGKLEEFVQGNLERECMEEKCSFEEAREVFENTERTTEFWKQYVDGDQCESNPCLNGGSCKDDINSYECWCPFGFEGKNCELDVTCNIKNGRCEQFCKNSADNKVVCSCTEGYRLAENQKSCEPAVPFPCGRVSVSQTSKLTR
Sequence (P00740 227-461, chain 2 of 2): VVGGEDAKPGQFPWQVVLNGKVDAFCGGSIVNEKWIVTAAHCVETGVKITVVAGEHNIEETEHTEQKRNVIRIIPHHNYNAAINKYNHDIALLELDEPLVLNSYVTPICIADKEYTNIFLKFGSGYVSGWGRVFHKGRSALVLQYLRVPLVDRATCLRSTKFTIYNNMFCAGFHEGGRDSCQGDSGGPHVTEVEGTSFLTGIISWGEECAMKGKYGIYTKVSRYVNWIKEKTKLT
Experiment: BLI (Octet) in-tandem binning on biotinylated FIXa, 330 nM each; competitor (1st antibody): mAb01-1767
quantity_kind: interferometry response value

[[record]]
binder = "mAb01-9978 (antibody, V domains shown, Bivalent IgG) VH: EVQLVESGGGLVQPGRSLRLSCAASGFTFHDYAMHWVRQVPGKGLEWVSGISWKGDIGGYVDSVKGRFTISRDNEKNSLYLQMNSLRAEDTALYYCVKSYGSGSFYNAFDSWGQGTLVTVSS VL: DIQMTQSPSTLSASVGDRVTITCRASQSISSWLAWYQQKPGKAPKLLIYKASRLERGTPSRFSGSGSGTEFSLTISSLQPDDFATYYCLEYSSYIRTFGQGTKVEIK"
numeric_value = 0.01

